So I've got pKi readings for Bradykinin-1 receptor (Homo sapiens (Human)), take a look.
pKi: −log10 of the molar value.
PROPERTY_LABEL: pKi

* Cc1nc(-c2c(F)cc(Cl)cc2-c2ccc3c(c2)CCC3NC(=O)C2(NC(=O)C(F)(F)F)CC2)no1 (racemic) [Example 4] | 7.69
* Cn1nnc(-c2c(F)cc(Cl)cc2-c2ccc3c(c2)OCC3NC(=O)C2(NC(=O)C(F)(F)F)CC2)n1 (racemic) [Example 20] | 7.62
* Cc1cc(C(=O)NC2(C(=O)N[C@H]3CCc4cc(-c5cc(Cl)cc(F)c5-c5noc(C)n5)ccc43)COC2)on1 [Example 52] | 7.59
* Cc1nc(-c2c(F)cc(Cl)cc2-c2cc(F)c3c(c2)CCC3NC(=O)C2(NC(=O)OC(C)(C)C)CC2)no1 (racemic) [Example 31] | 6.32
* Cc1nc(-c2c(F)cc(Cl)cc2-c2cc(F)c3c(c2)CCC3NC(=O)C2(NC(=O)c3ccnnc3)CC2)no1 (racemic) [Example 34] | 7.82
* Cc1nnc(C(=O)NC2(C(=O)NC3CSc4cc(-c5cc(Cl)cc(F)c5-c5nnn(C)n5)ccc43)CC2)o1 (racemic) [Example 62] | 7.91
* COc1cc(C(=O)NC2(C(=O)NC3CCc4cc(-c5cc(Cl)cc(F)c5-c5nnn(C)n5)cnc43)CC2)on1 (racemic) [Example 59] | 8.46
* Cc1nc(-c2c(F)cc(Cl)cc2-c2ccc3c(c2)CCC3(C)NC(=O)C2(NC(=O)C(F)(F)F)CC2)no1 (racemic) [Example 17] | 8.23
* Cn1nnc(-c2c(F)cc(Cl)cc2-c2cnc3c(c2)CCC3NC(=O)C2(NC(=O)OC(C)(C)C)CC2)n1 (racemic) [Example 54] | 7.20

====

Biological target: Bradykinin-1 receptor (Homo sapiens (Human), UniProt P46663)
Sequence (P46663 whole entry): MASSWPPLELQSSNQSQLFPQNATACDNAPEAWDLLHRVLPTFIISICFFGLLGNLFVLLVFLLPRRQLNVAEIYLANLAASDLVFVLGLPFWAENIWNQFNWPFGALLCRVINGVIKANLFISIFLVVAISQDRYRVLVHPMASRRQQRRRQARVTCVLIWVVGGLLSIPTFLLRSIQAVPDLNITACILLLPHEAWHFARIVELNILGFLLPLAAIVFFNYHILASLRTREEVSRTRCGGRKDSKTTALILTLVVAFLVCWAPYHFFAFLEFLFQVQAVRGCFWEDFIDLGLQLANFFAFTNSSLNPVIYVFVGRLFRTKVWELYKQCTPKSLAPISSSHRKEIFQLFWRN
Test: Calcium mobilization assay (FLIPR, Fluo-4) in GeneBLAzer Bradykinin (B1)-NFAT-bla CHO-K1 cells
Conditions: antagonist activity; CHO-K1 cells stably overexpressing the human bradykinin 1 receptor; read-out: Ca mobilization Assay IC50
pIC50: −log10 of the molar value.
Binary call on pIC50: rule met from 9 upward, rule not met beneath that.

• Cc1nc(-c2c(F)cc(Cl)cc2-c2cnc3c(c2)CCC3NC(=O)C2(NC(=O)c3ccnnc3)CC2)no1 (single isomer, unassigned) [Example 41] = rule met
• Cn1nnc(-c2c(F)cc(Cl)cc2-c2ccc3c(c2)OCC3NC(=O)C2(NC(=O)C(F)(F)F)CC2)n1 (racemic) = rule not met
• Cc1nc(-c2c(F)cc(Cl)cc2-c2cc(F)c3c(c2)CCC3NC(=O)C2(N)CC2)no1 (racemic) = rule not met
• Cc1nnc(C(=O)NC2(C(=O)NC3CSc4cc(-c5cc(Cl)cc(F)c5-c5nnn(C)n5)ccc43)CC2)o1 (racemic) = rule not met
• COc1ncc(C(=O)NC2(C(=O)N[C@H]3CCc4cc(-c5cc(Cl)cc(F)c5-c5noc(C)n5)ccc43)CC2)cn1 = rule met
• Cc1nc(-c2c(F)cc(Cl)cc2-c2cc(F)c3c(c2)CCC3NC(=O)C2(NC(=O)C(F)(F)F)CC2)no1 (racemic) = rule met
